Biological target: Histone deacetylase 1 (Homo sapiens, UniProt Q13547)
Sequence (Q13547 whole entry): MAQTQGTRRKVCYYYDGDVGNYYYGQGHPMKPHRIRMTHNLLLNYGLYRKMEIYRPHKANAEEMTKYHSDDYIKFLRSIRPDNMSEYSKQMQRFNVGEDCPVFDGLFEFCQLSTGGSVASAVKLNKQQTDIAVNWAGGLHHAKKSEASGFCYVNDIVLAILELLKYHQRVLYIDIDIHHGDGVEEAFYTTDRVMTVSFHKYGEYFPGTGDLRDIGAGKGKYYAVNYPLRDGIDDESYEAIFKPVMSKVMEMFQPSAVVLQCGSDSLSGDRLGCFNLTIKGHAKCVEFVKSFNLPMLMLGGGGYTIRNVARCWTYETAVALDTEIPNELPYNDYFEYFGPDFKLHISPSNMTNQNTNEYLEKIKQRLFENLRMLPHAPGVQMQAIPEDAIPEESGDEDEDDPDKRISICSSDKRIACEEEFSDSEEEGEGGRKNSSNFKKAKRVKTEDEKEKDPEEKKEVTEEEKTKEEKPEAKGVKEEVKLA
Test: Potency index, ratio of vorinostat IC50 to compound IC50 for HDAC1 (unknown origin)
experimental_endpoint: Ratio IC50

Recorded results for 2 compounds are shown here.
Which value of Ratio IC50 has been reported for `CN(C)C(=O)c1cc2cnc(Nc3cccc(NC(=O)CCCCCCC(=O)NO)c3)nc2n1C1CCCC1` in the records? 10 to 100

Which value of Ratio IC50 has been reported for `CN(C)C(=O)c1cc2cnc(Nc3ccc(NC(=O)CCCCCCC(=O)NO)cn3)nc2n1C1CCCC1` in the records? 10 to 100

// moving on: another record for Ratio IC50
Which value of Ratio IC50 has been reported for `O=C(CCCCCCC(=O)Nc1ccc(Nc2ncc3nnn(C4CCCC4)c3n2)cc1)NO` in the records? 10 to 100

---

Assay: Half life in Sprague-Dawley rat at 20 mg/kg, ip administered as single dose by HPLC analysis
Type: ADME, organism-based
Details: in vivo
experimental_endpoint: half-life (h)
Lab book: enter the figure in h, no units written.

Which value of half-life has been reported for `CN(C)C(=O)c1cc2cnc(Nc3ccc(NC(=O)CCCCCCC(=O)NO)cc3)nc2n1C1CCCC1` in the records? 9.65

---

# Histone deacetylase 1 (Homo sapiens, UniProt Q13547): pIC50 values follow
pIC50: −log10 of the molar value.
experimental_endpoint: pIC50

Recorded results for 2 compounds are shown here.
Lab request: please report pIC50 under test system Histone deacetylase 1 (Homo sapiens, UniProt Q13547) for `CN(C)C(=O)c1cc2cnc(Nc3ccc(N4CCN(C(=O)CCCCCCC(=O)NO)CC4)cn3)nc2n1C1CCCC1` 7.41

Lab request: please report pIC50 under test system Histone deacetylase 1 (Homo sapiens, UniProt Q13547) for `CN(C)C(=O)c1cc2cnc(Nc3ccccc3NC(=O)CCCCCCC(=O)NO)nc2n1C1CCCC1` 7.43

1: CN(C)C(=O)c1cc2cnc(Nc3cccc(NC(=O)CCCCCCC(=O)NO)c3)nc2n1C1CCCC1
2: CN(C)C(=O)c1cc2cnc(Nc3ccc(NC(=O)CCCCC(=O)NO)cc3)nc2n1C1CCCC1
Sorting ascending by pIC50, which comes first: 1 or 2 ? Identify your pick by its label. 2
(2: 7.57, 1: 9.08)

A: CN(C)C(=O)c1cc2cnc(Nc3ccc(NC(=O)CCCCCCC(=O)NO)cc3)nc2n1C1CCCC1
B: O=C(CCCCCCC(=O)Nc1ccc(Nc2ncc3nnn(C4CCCC4)c3n2)cc1)NO
Sorting ascending by pIC50, which comes first: A or B ? Identify your pick by its label. B

---

Molecular target: CDK4/Cyclin D3 (Homo sapiens, UniProt P11802)
Sequence (P11802 whole entry): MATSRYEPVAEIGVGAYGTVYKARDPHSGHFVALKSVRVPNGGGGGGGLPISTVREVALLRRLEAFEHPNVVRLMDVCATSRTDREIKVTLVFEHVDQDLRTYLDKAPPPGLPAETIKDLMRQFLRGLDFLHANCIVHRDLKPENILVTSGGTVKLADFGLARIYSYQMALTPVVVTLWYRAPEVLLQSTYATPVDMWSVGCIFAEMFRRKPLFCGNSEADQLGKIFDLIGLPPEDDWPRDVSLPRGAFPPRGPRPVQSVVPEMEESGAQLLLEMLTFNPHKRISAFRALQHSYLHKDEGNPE
Sequence (P30281 whole entry, further chain): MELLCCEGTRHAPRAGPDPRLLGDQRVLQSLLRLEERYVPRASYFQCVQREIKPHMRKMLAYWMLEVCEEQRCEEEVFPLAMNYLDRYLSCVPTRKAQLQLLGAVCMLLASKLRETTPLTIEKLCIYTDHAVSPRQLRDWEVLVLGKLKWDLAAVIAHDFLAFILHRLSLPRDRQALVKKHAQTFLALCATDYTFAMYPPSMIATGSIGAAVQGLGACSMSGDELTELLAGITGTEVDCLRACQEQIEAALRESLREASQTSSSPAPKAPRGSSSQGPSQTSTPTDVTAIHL
Assay: Inhibition of recombinant human full length N-terminal GST-tagged CDK4/Cyclin-D3 co-expressed in baculovirus infected sf21 cells using Rb substrate in presence of [gamma33P]ATP after 10 mins by scintillation counting method
pIC50: −log10 of the molar value.
experimental_endpoint: pIC50

Recorded results for 3 compounds are shown here.
Lab request: please report pIC50 under test system CDK4/Cyclin D3 (Homo sapiens, UniProt P11802) for `COC(=O)CCCCCCC(=O)Nc1ccc(Nc2ncc3cc(C(=O)N(C)C)n(C4CCCC4)c3n2)cn1` 7.80

Lab request: please report pIC50 under test system CDK4/Cyclin D3 (Homo sapiens, UniProt P11802) for `O=C(CCCCCCC(=O)Nc1ccc(Nc2ncc3nnn(C4CCCC4)c3n2)cc1)NO` 5.94

Lab request: please report pIC50 under test system CDK4/Cyclin D3 (Homo sapiens, UniProt P11802) for `CN(C)C(=O)c1cc2cnc(Nc3ccc(C(=O)NCCCCCCCC(=O)NO)cc3)nc2n1C1CCCC1` 7.59

I: CCCCCC(=O)Nc1ccc(Nc2ncc3cc(C(=O)N(C)C)n(C4CCCC4)c3n2)cc1
II: COC(=O)CCCCCCC(=O)Nc1ccc(Nc2ncc3cc(C(=O)N(C)C)n(C4CCCC4)c3n2)nc1
III: CN(C)C(=O)c1cc2cnc(Nc3ccc(NC(=O)CCCCCCC(=O)NO)cn3)nc2n1C1CCCC1
IV: CCCCCCC(=O)Nc1ccc(Nc2ncc3cc(C(=O)N(C)C)n(C4CCCC4)c3n2)cc1
V: COC(=O)CCCCCCC(=O)Nc1ccc(Nc2ncc3nnn(C4CCCC4)c3n2)cc1
Arrange these 5 compounds in increasing order of pIC50. Your answer should be the labels, listed in the requested order. V, III, II, IV, I

a: COC(=O)CCCCNC(=O)c1ccc(Nc2ncc3cc(C(=O)N(C)C)n(C4CCCC4)c3n2)cc1
b: COC(=O)CCCCCCC(=O)Nc1ccc(Nc2ncc3cc(C(=O)N(C)C)n(C4CCCC4)c3n2)cc1
Sorting ascending by pIC50, which comes first: a or b ? Identify your pick by its label. b

A: CN(C)C(=O)c1cc2cnc(Nc3ccc(NC(=O)CCCCCCC(=O)NO)cc3)nc2n1C1CCCC1
B: CN(C)C(=O)c1cc2cnc(Nc3cccc(NC(=O)CCCCCCC(=O)NO)c3)nc2n1C1CCCC1
// which entry has the larger pIC50 value, A or B ? Identify your pick by its label. A
(A: 8.06, B: 7.52)

I: CN(C)C(=O)c1cc2cnc(Nc3ccc(C(=O)NCCCCC(=O)NO)cc3)nc2n1C1CCCC1
II: COC(=O)CCCCCCCC(=O)Nc1ccc(Nc2ncc3cc(C(=O)N(C)C)n(C4CCCC4)c3n2)cc1
III: CCCCCCCCC(=O)Nc1ccc(Nc2ncc3cc(C(=O)N(C)C)n(C4CCCC4)c3n2)cc1
Arrange these 3 compounds in increasing order of pIC50. Your answer should be the labels, listed in the requested order. III, II, I

a: COC(=O)CCCCCC(=O)Nc1ccc(Nc2ncc3cc(C(=O)N(C)C)n(C4CCCC4)c3n2)cc1
b: COC(=O)CCCCCNC(=O)Nc1ccc(Nc2ncc3cc(C(=O)N(C)C)n(C4CCCC4)c3n2)cc1
// which entry has the larger pIC50 value, a or b ? Identify your pick by its label. a
(a: 8.00, b: 7.64)

I: COC(=O)CCCCCCNC(=O)c1ccc(Nc2ncc3cc(C(=O)N(C)C)n(C4CCCC4)c3n2)cc1
II: COC(=O)CCCCCCC(=O)Nc1cccc(Nc2ncc3cc(C(=O)N(C)C)n(C4CCCC4)c3n2)c1
Sorting ascending by pIC50, which comes first: I or II ? Identify your pick by its label. II

a: CN(C)C(=O)c1cc2cnc(Nc3ccc(NC(=O)NCCCCCC(=O)NO)cc3)nc2n1C1CCCC1
b: CN(C)C(=O)CCCCCCC(=O)Nc1ccc(Nc2ncc3cc(C(=O)N(C)C)n(C4CCCC4)c3n2)cc1
// which entry has the larger pIC50 value, a or b ? Identify your pick by its label. a
(a: 8.08, b: 7.80)

a: COC(=O)CCCCCCC(=O)N1CCN(c2ccc(Nc3ncc4cc(C(=O)N(C)C)n(C5CCCC5)c4n3)nc2)CC1
b: COC(=O)CCCCCCCNC(=O)c1ccc(Nc2ncc3cc(C(=O)N(C)C)n(C4CCCC4)c3n2)cc1
Sorting ascending by pIC50, which comes first: a or b ? Identify your pick by its label. a
(a: 7.89, b: 8.09)
